These entries and their values trace back to the supplement of paper PMC10567573.

The entries below come with measured protein stability index values attached.
B1: FBF1 (parent)
chain: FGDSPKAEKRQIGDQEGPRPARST

- Variants of: B1
- PROTOCOL_DESCRIPTION: protein stability index of a GFP-peptide fusion (GPS, HEK-293T) (PSI 1-6); higher = more stable;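 also: lentivirally expressed fusions sorted by FACS into six bins by GFP to DsRed ratio, PSI derived from sequencing read proportions per bin multiplied by bin number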
- COND: c terminus: a fixed tail appended
Form: value (number only, do not type unit).

For orientation, consider the following solved cases.
{"columns": ["MUTATION_ID", "protein stability index"],
 "data": [
  ["G2Y", 5.18],
  ["P20H", 4.95],
  ["D3C", 4.62],
  ["A7Y", 4],
  ["R22M", 5.72]
]}

Return reported protein stability index; argument: E8A
4.84

Return reported protein stability index; argument: G17D
5.24

Return reported protein stability index; argument: G13Y
4.86

Return reported protein stability index; argument: S23E
5.03

Return reported protein stability index; argument: R19K
4.88

Return reported protein stability index; argument: K9T
5.17
